Reference for the values: patent US20070270475A1

Target entity: HCV RNA Polymerase, recombinant full-length NS5B, genotype 1b (Hepatitis C virus genotype 1b, UniProt Q9WMX2)
Construct: Recombinant full-length NS5B
Sequence (Q9WMX2 2420-3010): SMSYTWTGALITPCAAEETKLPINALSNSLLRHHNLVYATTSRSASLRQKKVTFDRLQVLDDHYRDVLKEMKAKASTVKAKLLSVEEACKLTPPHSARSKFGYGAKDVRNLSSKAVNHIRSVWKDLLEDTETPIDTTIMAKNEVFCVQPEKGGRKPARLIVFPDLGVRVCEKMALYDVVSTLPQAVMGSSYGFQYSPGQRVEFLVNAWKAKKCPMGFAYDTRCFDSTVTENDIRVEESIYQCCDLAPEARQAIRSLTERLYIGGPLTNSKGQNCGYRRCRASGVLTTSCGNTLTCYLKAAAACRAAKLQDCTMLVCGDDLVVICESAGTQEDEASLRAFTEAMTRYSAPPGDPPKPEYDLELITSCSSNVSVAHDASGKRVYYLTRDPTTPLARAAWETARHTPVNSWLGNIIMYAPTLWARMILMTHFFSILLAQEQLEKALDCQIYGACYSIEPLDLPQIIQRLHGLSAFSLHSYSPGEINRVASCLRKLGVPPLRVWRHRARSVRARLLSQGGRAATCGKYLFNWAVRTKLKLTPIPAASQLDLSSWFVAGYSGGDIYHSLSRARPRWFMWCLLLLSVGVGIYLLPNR
Protocol notes: In vitro HCV RNA-dependent RNA polymerase inhibition assay, genotype 1b full-length enzyme
Study conditions: genotype 1b full-length NS5B, 4 nM enzyme
Experimental endpoint: IC50

# Compound, Experimental endpoint, Result
records = [
    ("COCC1CC(CC(C)C)(C(=O)O)N(C(=O)c2ccc(C(C)(C)C)c(OC)c2)C1c1ncc(C)s1 (single isomer, unassigned; enantiomer a) [Compound D, reference compound]", "IC50", "200 to 500 nM"),
    ("COC[C@H]1C[C@@](Cc2cscn2)(C(=O)O)N(C(=O)c2ccc(C(C)(C)C)c(OC)c2)[C@H]1c1ncc(C)s1 (racemic) [Example 1]", "IC50", "< 200 nM"),
    ("COC[C@H]1C[C@@](Cc2ccsn2)(C(=O)O)N(C(=O)c2ccc(C(C)(C)C)c(OC)c2)[C@H]1c1nccs1 (single isomer, unassigned; enantiomer a) [Example 5]", "IC50", "< 200 nM"),
    ("COC[C@H]1C[C@@](Cc2ccccc2)(C(=O)O)N(C(=O)c2ccc(C(C)(C)C)c(OC)c2)[C@H]1c1nccs1 (racemic) [Compound E, reference compound]", "IC50", "200 to 500 nM"),
    ("COC[C@H]1C[C@@](Cc2cscn2)(C(=O)O)N(C(=O)c2ccc(C(C)(C)C)c(OC)c2)[C@H]1c1ncc(C)s1 (single isomer, unassigned; enantiomer a) [Example 2]", "IC50", "< 200 nM"),
    ("COC[C@H]1C[C@@](Cc2cscn2)(C(=O)O)N(C(=O)c2ccc(C(C)(C)C)c(OC)c2)[C@H]1c1nccs1 (racemic) [Example 3]", "IC50", "< 200 nM"),
    ("COC[C@H]1C[C@@](CC(C)C)(C(=O)O)N(C(=O)c2ccc(C(C)(C)C)c(OC)c2)[C@H]1c1nccs1 (racemic) [Compound A, reference compound]", "IC50", "> 500 nM"),
    ("COC[C@H]1C[C@@](CC(C)C)(C(=O)O)N(C(=O)c2ccc(C(C)(C)C)c(OC)c2)[C@H]1c1ncc(C)s1 (racemic) [Compound C, reference compound]", "IC50", "> 500 nM"),
    ("COC[C@H]1C[C@@](Cc2ccsn2)(C(=O)O)N(C(=O)c2ccc(C(C)(C)C)c(OC)c2)[C@H]1c1nccs1 (racemic) [Example 4]", "IC50", "< 200 nM"),
    ("COC[C@H]1C[C@@](Cc2cscn2)(C(=O)O)N(C(=O)c2ccc(C(C)(C)C)c(OC)c2)[C@H]1c1nccs1 (single isomer, unassigned; enantiomer a) [Example 12]", "IC50", "< 200 nM"),
    ("COC[C@H]1C[C@@](Cn2cccn2)(C(=O)O)N(C(=O)c2ccc(C(C)(C)C)c(OC)c2)[C@H]1c1ncc(C)s1 (racemic) [Example 10]", "IC50", "< 200 nM"),
]
